Target: HGK (Homo sapiens)
Sequence (O95819 whole entry, species assumed): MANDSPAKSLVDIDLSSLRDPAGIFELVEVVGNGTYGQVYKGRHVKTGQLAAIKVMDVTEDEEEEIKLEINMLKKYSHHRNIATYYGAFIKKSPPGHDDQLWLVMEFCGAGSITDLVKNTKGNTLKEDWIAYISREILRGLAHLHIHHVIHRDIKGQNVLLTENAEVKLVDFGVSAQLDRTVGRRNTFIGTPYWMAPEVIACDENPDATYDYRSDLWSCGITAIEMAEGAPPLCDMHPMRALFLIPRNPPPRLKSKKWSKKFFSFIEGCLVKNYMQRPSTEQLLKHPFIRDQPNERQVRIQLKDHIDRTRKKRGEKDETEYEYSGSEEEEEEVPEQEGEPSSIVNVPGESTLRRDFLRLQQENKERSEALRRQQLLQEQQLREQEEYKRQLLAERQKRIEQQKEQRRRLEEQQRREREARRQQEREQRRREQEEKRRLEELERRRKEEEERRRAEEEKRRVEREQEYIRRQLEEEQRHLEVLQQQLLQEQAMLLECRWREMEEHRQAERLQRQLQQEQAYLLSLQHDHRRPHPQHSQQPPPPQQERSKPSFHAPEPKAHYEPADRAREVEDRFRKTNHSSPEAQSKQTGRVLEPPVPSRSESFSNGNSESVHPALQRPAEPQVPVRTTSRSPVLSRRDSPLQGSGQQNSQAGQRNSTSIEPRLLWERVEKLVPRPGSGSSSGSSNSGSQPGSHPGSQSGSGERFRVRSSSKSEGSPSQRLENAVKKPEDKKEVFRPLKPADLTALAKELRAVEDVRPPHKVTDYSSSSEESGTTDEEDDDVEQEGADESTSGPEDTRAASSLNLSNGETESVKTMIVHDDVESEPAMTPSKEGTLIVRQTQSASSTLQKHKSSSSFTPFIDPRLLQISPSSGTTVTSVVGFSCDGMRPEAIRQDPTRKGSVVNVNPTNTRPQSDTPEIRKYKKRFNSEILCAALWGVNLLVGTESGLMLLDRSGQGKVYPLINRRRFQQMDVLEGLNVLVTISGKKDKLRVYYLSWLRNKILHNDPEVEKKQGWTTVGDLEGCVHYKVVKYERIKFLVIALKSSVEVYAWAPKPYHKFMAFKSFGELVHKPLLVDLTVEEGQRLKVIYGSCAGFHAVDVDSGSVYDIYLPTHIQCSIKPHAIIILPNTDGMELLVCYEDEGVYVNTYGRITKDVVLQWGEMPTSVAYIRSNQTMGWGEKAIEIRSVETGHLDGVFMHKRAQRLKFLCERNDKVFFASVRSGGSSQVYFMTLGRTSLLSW
READOUT: IC50

- C[C@]12O[C@H](C[C@@H](O)[C@H]1O)n1c3ccccc3c3c4c(c5c6ccccc6n2c5c31)C(=O)NC4=O [formula (IX)]: > 10 nM
- C[C@]12O[C@H](C[C@@H](O)[C@H]1O)n1c3ccccc3c3c4c(c5c6ccccc6n2c5c31)CNC4=O [formula (XVIII)]: > 10 nM

----------
Target: FGFR3 (Homo sapiens)
Sequence (P22607 23-806, species assumed): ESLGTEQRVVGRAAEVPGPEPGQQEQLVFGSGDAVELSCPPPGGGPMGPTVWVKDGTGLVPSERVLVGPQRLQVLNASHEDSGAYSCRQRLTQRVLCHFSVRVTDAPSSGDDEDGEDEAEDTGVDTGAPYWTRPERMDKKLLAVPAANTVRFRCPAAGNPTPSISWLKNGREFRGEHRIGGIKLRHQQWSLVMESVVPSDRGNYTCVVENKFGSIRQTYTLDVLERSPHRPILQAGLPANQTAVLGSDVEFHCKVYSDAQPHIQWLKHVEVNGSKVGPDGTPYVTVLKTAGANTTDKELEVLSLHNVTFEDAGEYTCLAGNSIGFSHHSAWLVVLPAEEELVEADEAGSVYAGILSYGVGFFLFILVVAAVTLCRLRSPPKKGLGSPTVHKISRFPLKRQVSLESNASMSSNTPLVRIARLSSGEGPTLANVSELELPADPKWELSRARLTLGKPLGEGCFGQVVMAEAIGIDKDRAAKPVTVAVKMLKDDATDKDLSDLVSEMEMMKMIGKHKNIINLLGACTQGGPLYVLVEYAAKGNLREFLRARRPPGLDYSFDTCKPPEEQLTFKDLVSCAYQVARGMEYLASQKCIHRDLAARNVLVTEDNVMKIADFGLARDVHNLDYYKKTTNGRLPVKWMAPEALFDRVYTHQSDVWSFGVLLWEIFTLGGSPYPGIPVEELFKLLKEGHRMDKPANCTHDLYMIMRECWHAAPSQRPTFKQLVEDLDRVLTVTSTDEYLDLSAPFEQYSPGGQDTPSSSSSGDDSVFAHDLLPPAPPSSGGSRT
Experiment: LabChip (Caliper) kinase assay, FGFR3
Type: biochemical
Conditions: compound at 100 nM, read-out: remaining kinase activity (in %) / percentage of inhibition
READOUT: inhibition at 0.1 µM

• C[C@@H]1O[C@@H](n2c3ccccc3c3c4c(c5c6ccccc6[nH]c5c32)CNC4=O)[C@H](O)[C@H](O)[C@H]1O [formula (XII), N^13-1′-β-L-rhamnosyl-k252c] = -1%
• C[C@H]1O[C@@H](n2c3ccccc3c3c4c(c5c6ccccc6[nH]c5c32)CNC4=O)C[C@@H](O)[C@@H]1O [formula (XV), N^13-1′-β-D-olivosyl-k252c] = -13%
• C[C@@H]1O[C@@H](n2c3ccccc3c3c4c(c5c6ccccc6[nH]c5c32)CNC4=O)C[C@@H](O)[C@H]1O [formula (XIV), N^13-1′-β-L-digitoxosyl-k252c] = -11%
• C[C@@H]1O[C@@H](n2c3ccccc3c3c4c(c5c6ccccc6[nH]c5c32)C(=O)NC4=O)[C@H](O)[C@H](O)[C@H]1O [formula (III), N^13-1′-β-L-rhamnosylarcyriaflavin] = -4%
• C[C@H]1O[C@@H](n2c3ccccc3c3c4c(c5c6ccccc6[nH]c5c32)C(=O)NC4=O)C[C@@H](O)[C@@H]1O [formula (VI), N^13-1′-β-D-olivosylarcyriaflavin] = -11%

----------
Form field: inhibition at 0.1 µM (one value per entry).
Target: SYK (Homo sapiens)
Construct: purchased Carna Biosciences
Experiment: LabChip (Caliper) kinase assay, SYK
Type: biochemical
Conditions: compound at 100 nM, read-out: remaining kinase activity (in %) / percentage of inhibition
READOUT: inhibition at 0.1 µM (%)

* C[C@H]1O[C@@H](n2c3ccccc3c3c4c(c5c6ccccc6[nH]c5c32)CNC4=O)C[C@@H](O)[C@@H]1O [formula (XV), N^13-1′-β-D-olivosyl-k252c] | 29
* C[C@@H]1O[C@@H](n2c3ccccc3c3c4c(c5c6ccccc6[nH]c5c32)C(=O)NC4=O)[C@H](O)[C@H](O)[C@H]1O | -8
* C[C@@H]1O[C@@H](n2c3ccccc3c3c4c(c5c6ccccc6[nH]c5c32)CNC4=O)[C@H](O)[C@H](O)[C@H]1O [formula (XII), N^13-1′-β-L-rhamnosyl-k252c] | 10

----------
Target: MST2 (Homo sapiens)
Construct: purchased Upstate
Sequence (Q13188 1-491): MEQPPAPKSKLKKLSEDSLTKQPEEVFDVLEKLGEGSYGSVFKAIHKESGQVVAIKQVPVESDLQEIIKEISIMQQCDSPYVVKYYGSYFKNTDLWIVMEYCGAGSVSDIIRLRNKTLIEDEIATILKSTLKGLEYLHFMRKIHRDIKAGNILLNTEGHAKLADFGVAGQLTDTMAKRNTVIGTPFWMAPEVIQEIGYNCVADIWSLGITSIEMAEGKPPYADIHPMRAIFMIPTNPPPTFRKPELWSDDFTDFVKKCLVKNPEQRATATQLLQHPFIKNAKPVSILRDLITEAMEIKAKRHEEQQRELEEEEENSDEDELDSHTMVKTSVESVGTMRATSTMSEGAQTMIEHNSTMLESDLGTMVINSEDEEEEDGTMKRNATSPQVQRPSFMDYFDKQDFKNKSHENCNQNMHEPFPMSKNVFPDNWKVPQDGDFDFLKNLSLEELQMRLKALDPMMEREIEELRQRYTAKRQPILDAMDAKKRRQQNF
Experiment: LabChip (Caliper) kinase assay, MST2
Type: biochemical
Conditions: compound at 10 nM, read-out: remaining kinase activity (in %) / percentage of inhibition
Description: The analysis of kinase activity described here was performed using LabChip (Caliper Life Sciences), specifically the Caliper LC3000 and the EZ Reader II instruments. The kinase assay used measures the conversion of a fluorescent peptide (substrate) to a phosphorylated product. The reaction mixture, in a microplate well, is introduced by a capillary in a chip where the non-phosphorylated substrate and the phosphorylated product are separated by fluorescence induced by laser. […]
Threshold 7%. inhibition at 0.01 µM below it: rule met. inhibition at 0.01 µM at it or above: rule not met.

• C[C@@H]1O[C@@H](n2c3ccccc3c3c4c(c5c6ccccc6[nH]c5c32)C(=O)NC4=O)C[C@H](O)[C@H]1O [formula (IV), N^13-1′-β-L-olivosylarcyriaflavin] = rule met
• C[C@@H]1O[C@@H](n2c3ccccc3c3c4c(c5c6ccccc6[nH]c5c32)C(=O)NC4=O)C[C@@H](O)[C@H]1O [formula (V), N^13-1′-β-L-digitoxosylarcyriaflavin] = rule not met
• C[C@@H]1O[C@@H](n2c3ccccc3c3c4c(c5c6ccccc6[nH]c5c32)CNC4=O)C[C@H](O)[C@H]1O [formula (XIII), N^13-1′-β-L-olivosyl-k252c] = rule met
• C[C@H]1O[C@@H](n2c3ccccc3c3c4c(c5c6ccccc6[nH]c5c32)CNC4=O)C[C@@H](O)[C@@H]1O [formula (XV), N^13-1′-β-D-olivosyl-k252c] = rule not met

----------
Molecular target: Ikkb (Homo sapiens, UniProt O14920)
Sequence (O14920 1-756): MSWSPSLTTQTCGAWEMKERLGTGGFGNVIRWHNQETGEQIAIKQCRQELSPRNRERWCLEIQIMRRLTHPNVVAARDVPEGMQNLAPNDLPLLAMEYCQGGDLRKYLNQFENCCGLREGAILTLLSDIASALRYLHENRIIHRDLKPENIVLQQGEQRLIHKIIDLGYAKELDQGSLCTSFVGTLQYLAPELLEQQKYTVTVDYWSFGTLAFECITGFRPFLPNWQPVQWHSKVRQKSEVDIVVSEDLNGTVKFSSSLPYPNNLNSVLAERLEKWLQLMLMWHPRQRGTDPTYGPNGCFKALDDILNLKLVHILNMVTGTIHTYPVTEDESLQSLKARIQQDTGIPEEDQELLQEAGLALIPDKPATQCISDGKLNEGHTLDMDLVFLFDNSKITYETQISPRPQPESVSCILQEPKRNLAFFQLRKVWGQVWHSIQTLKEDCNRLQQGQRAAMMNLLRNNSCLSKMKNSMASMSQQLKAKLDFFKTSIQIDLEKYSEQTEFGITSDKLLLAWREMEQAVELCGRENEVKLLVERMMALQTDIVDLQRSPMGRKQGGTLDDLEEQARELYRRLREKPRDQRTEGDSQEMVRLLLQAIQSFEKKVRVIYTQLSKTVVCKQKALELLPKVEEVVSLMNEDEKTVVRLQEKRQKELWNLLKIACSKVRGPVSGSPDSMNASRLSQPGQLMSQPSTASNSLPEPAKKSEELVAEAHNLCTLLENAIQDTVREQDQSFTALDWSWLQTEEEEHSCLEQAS
READOUT: IC50

* C[C@]12O[C@H](C[C@H](O)[C@H]1O)n1c3ccccc3c3c4c(c5c6ccccc6n2c5c31)C(=O)NC4=O [formula (VIII)] | < 0.03 nM
* C[C@]12O[C@H]([C@H](O)[C@H](O)[C@H]1O)n1c3ccccc3c3c4c(c5c6ccccc6n2c5c31)C(=O)NC4=O [formula (VII)] | 0.17 nM
* C[C@]12O[C@H](C[C@@H](O)[C@H]1O)n1c3ccccc3c3c4c(c5c6ccccc6n2c5c31)C(=O)NC4=O [formula (IX)] | > 10 nM
* C[C@]12O[C@H](C[C@@H](O)[C@H]1O)n1c3ccccc3c3c4c(c5c6ccccc6n2c5c31)CNC4=O [formula (XVIII)] | > 100 nM

----------
Target: MST2 (Homo sapiens, UniProt Q13188)
Construct: purchased Upstate
Experiment: LabChip (Caliper) kinase assay, MST2
Assay type: biochemical
Conditions: compound at 10 nM, read-out: remaining kinase activity (in %) / percentage of inhibition
Form field: inhibition at 0.01 µM (one value per entry).
READOUT: inhibition at 0.01 µM (%)

• C[C@@H]1O[C@@H](n2c3ccccc3c3c4c(c5c6ccccc6[nH]c5c32)CNC4=O)[C@H](O)[C@H](O)[C@H]1O [formula (XII), N^13-1′-β-L-rhamnosyl-k252c] = 4
• C[C@H]1O[C@@H](n2c3ccccc3c3c4c(c5c6ccccc6[nH]c5c32)C(=O)NC4=O)C[C@@H](O)[C@@H]1O = 13
• C[C@@H]1O[C@@H](n2c3ccccc3c3c4c(c5c6ccccc6[nH]c5c32)C(=O)NC4=O)[C@H](O)[C@H](O)[C@H]1O = 2

----------
Molecular target: UniProtKB Q96GD4
Sequence (Q96GD4 whole entry): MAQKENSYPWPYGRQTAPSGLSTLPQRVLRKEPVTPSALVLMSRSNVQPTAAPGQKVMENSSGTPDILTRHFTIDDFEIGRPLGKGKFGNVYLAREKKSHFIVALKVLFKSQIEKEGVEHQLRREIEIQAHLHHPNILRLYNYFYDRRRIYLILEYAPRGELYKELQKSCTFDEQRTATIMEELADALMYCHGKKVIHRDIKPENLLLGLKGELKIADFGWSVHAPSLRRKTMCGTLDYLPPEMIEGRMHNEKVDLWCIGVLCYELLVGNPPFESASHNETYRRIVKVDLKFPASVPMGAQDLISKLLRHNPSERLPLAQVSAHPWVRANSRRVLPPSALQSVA
Sequence (Q9NQS7 803-918 partner limits assumed): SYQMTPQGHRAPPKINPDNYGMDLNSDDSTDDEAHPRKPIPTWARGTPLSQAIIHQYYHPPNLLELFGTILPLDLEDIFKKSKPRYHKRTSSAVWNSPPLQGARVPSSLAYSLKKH
READOUT: IC50 (nM)

• C[C@]12O[C@H](C[C@H](O)[C@H]1O)n1c3ccccc3c3c4c(c5c6ccccc6n2c5c31)CNC4=O [formula (XVII), N^12-5′(S)-N^13-1′-(R)-L-olivosyl-k252c] = 6.8
• C[C@]12O[C@H](C[C@@H](O)[C@H]1O)n1c3ccccc3c3c4c(c5c6ccccc6n2c5c31)C(=O)NC4=O [formula (IX)] = 4.5
